target: full-length beta-Catenin (Uniprot ID P35222) (Homo sapiens)
Construct: 10 nM full-length beta-Catenin (Uniprot ID P35222)
assay text: Fluorescence polarization IC50 (beta-catenin / 5FAM-TCF4 10-53 competition)
Format: binding
stated conditions: fluorescence polarization; read-out: beta-Catenin FP IC50
readout label: IC50
Answer format: value, then unit.

| molecule | result |
| --- | --- |
| CC[C@H](C)[C@@H]1NC(=O)[C@H](CC(=O)O)NC(=O)[C@]2(CC=CCCCC3(CCCC=CCCCCCC[C@@](C)(C(=O)N[C@@H](Cc4ccccc4)C(=O)N[C@@H](Cc4csc5ccccc45)C(=O)N[C@@H](CCC(N)=O)C(N)=O)NC(=O)[C@H](CCC(N)=O)NC(=O)[C@H](Cc4cccc(OC)c4)NC(=O)[C@H](C)NC(=O)[C@H](C)NC(=O)[C@H](CCC(=O)O)NC(=O)[C@H](CC(=O)O)NC3=O)NC1=O)CCCN2C(C)=O (some centres unmarked) [I-724] | 114 nM |

The record that follows has no IC50 shown yet.
## Input Can you look up the measured IC50 of CC(=O)N1CCC[C@]12CC=CCCCC1(CCCC=CCCCCCC[C@@](C)(C(=O)N[C@@H](Cc3ccccc3)C(=O)N[C@@H](Cc3csc4ccccc34)C(=O)N[C@@H](CCC(N)=O)C(N)=O)NC(=O)[C@H](CCC(N)=O)NC(=O)[C@H](Cc3ccccc3)NC(=O)[C@H](C)NC(=O)[C@H](C)NC(=O)[C@H](CCC(=O)O)NC(=O)[C@H](CC(=O)O)NC1=O)NC(=O)[C@H](CC(F)(F)F)NC(=O)[C@H](CC(=O)O)NC2=O (some centres unmarked) [I-502] for me?
## Output 55 nM

* * *

// reported pIC50 for each item listed
target: beta-catenin/TCF4 engagement (Homo sapiens, UniProt P35222)
Construct: expressed in transfected cells; host or cells: HEK293
Sequence (P35222 1-781): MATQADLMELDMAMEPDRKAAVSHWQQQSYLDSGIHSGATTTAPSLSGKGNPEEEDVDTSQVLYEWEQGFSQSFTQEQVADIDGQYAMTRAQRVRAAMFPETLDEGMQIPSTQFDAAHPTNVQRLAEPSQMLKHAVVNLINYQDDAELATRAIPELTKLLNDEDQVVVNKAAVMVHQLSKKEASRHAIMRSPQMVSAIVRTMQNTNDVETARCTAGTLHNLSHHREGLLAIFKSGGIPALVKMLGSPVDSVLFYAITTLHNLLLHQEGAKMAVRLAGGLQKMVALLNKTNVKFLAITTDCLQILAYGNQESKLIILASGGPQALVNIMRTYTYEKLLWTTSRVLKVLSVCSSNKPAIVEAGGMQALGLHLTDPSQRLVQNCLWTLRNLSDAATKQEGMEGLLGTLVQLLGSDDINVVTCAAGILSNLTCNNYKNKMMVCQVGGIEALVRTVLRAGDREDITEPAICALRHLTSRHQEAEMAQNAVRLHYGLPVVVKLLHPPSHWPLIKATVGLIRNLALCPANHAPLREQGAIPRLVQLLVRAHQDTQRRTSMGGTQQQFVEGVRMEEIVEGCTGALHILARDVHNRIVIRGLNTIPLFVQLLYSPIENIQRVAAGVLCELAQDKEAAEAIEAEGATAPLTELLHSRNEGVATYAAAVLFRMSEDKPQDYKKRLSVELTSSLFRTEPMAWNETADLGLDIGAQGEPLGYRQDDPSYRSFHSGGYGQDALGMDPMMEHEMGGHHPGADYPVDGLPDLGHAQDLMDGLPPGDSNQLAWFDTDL
assay text: Nano-BRET target engagement assay (B-cat-Halo & TCF4-Luc in HEK293 cells)
Assay type: cell-based
stated conditions: read-out: NanoBRET Abs IC50
To interpret pIC50, take it as minus log10 of a concentration measured in moles per litre.

| molecule | pIC50 |
| --- | --- |
| CC(=O)N1CCC[C@]12CC=CCCCC1(CCCC=CCCCOC(=O)N3CC[C@@](C(=O)N[C@@H](Cc4ccsc4)C(=O)N[C@@H](Cc4csc5ccccc45)C(=O)N[C@@H](CCC(N)=O)C(N)=O)(C3)NC(=O)[C@H](CC(N)=O)NC(=O)[C@H](Cc3ccccc3)NC(=O)[C@H](C)NC(=O)[C@H](C)NC(=O)[C@H](CN(CC(=O)O)CC(F)(F)F)NC(=O)[C@H](CC(=O)O)NC1=O)NC(=O)[C@H](CC(C)(C)C)NC(=O)[C@H](CC(=O)O)NC2=O (single isomer, unassigned) | 4.85 |
| CC(=O)N1CCC[C@]12CC=CCCCC1(CCCC=CCCCOC(=O)N3CC[C@@](C(=O)N[C@@H](Cc4ccccc4Cl)C(=O)N[C@@H](Cc4csc5ccccc45)C(=O)N[C@@H](C(N)=O)[C@H](C)O)(C3)NC(=O)[C@H](CO)NC(=O)[C@H](Cc3ccccc3)NC(=O)[C@H](C)NC(=O)[C@H](C)NC(=O)[C@H](CC(=O)O)NC(=O)[C@H](CC(=O)O)NC1=O)NC(=O)[C@H](CC(C)(C)C)NC(=O)[C@H](CC(=O)O)NC2=O (some centres unmarked) | 4.98 |

Here is the next item to consider.
## Input Requested read-out: pIC50. Entry: CC(=O)N1CCC[C@]12CC=CCCCC1(CCCC=CCCCOC(=O)N3CC[C@@](C(=O)N[C@@H](Cc4ccsc4)C(=O)N[C@@H](Cc4csc5ccccc45)C(=O)N[C@@H](CCC(N)=O)C(=O)N[C@H](C)C(N)=O)(C3)NC(=O)[C@H](CC(N)=O)NC(=O)[C@H](Cc3ccccc3)NC(=O)[C@H](C)NC(=O)[C@H](C)NC(=O)[C@H](CC(=O)O)NC(=O)[C@H](CC(=O)O)NC1=O)NC(=O)[C@H](CC(C)(C)C)NC(=O)[C@H](CC(=O)O)NC2=O (some centres unmarked)
## Output 5.20

* * *

target: beta-catenin/TCF4 engagement (Homo sapiens)
Construct: expressed in transfected cells; host or cells: HEK293
assay text: Nano-BRET target engagement assay (B-cat-Halo & TCF4-Luc in HEK293 cells)
Type: cell-based
stated conditions: absolute IC50; read-out: NanoBRET Abs IC50
readout label: IC50

Example results:
| compound | readout label | result |
| --- | --- | --- |
| CC(=O)N1CCC[C@]12CC=CCCCC1(CCCC=CCCCOC(=O)N3CC[C@@](C(=O)N[C@@H](Cc4ccsc4)C(=O)N[C@@H](Cc4ccc(Cl)c(Cl)c4)C(=O)N[C@@H](C)C(N)=O)(C3)NC(=O)[C@H](C(C)C)NC(=O)[C@H](Cc3ccccc3)NC(=O)[C@H](C)NC(=O)[C@H](CCC(N)=O)NC(=O)[C@H](Cc3cccc(C(=O)O)c3)NC(=O)[C@H](CC(=O)O)NC1=O)NC(=O)[C@H](CC(C)(C)C)NC(=O)[C@H](CC(=O)O)NC2=O (stereo partly drawn) [I-2217] | IC50 | 2.1 µM |
| CC(=O)N1CCC[C@]12CC=CCCCC1(CCCC=CCCCOC(=O)N3CC[C@@](C(=O)N[C@@H](Cc4ccccc4Cl)C(=O)N[C@@H](Cc4csc5ccccc45)C(=O)N[C@H](CO)[C@@H](C)O)(C3)NC(=O)[C@H](CC(C)C)NC(=O)[C@H](Cc3ccccc3)NC(=O)[C@H](C)NC(=O)[C@H](C)NC(=O)[C@H](CC(=O)O)NC(=O)[C@H](CC(=O)O)NC1=O)NC(=O)[C@H](CC(C)(C)C)NC(=O)[C@H](CC(=O)O)NC2=O (stereo partly drawn) [I-1249] | IC50 | 25.2 µM |
| CC(=O)N1CCC[C@]12CC=CCCCC1(CCCC=CCCCOC(=O)N3CC[C@@](C(=O)N[C@@H](Cc4ccsc4)C(=O)N[C@@H](Cc4csc5ccccc45)C(=O)N[C@@H](CCC(N)=O)C(N)=O)(C3)NC(=O)[C@H](CC(C)C)NC(=O)[C@H](Cc3ccccc3)NC(=O)[C@H](C)NC(=O)[C@H](C)NC(=O)[C@H](CN(CC(=O)O)C(=O)CCN(C)C)NC(=O)[C@H](CC(=O)O)NC1=O)NC(=O)[C@H](CC(C)(C)C)NC(=O)[C@H](CC(=O)O)NC2=O (stereo partly drawn) [I-2234] | IC50 | > 20 µM |

## Input // returns reported IC50 for input CC(=O)N1CCC[C@]12CC=CCCCC1(CCCC=CCCCOC(=O)N3CC[C@@](C(=O)N[C@@H](Cc4ccsc4)C(=O)N[C@@H](Cc4csc5ccccc45)C(=O)N[C@@H](CCC(N)=O)C(N)=O)(C3)NC(=O)[C@H](CC(C)C)NC(=O)[C@H](Cc3ccccc3)NC(=O)[C@H](C)NC(=O)[C@H](C)NC(=O)[C@H](Cc3cn(CC(=O)O)c4ccccc34)NC(=O)[C@H](CC(=O)O)NC1=O)NC(=O)[C@H](CC(C)(C)C)NC(=O)[C@H](CC(=O)O)NC2=O (stereo partly drawn) [I-1445]
## Output 11.1 µM

## Input Please look up its IC50: CCCC[C@@H]1NC(=O)[C@H](CN(CC(=O)O)CC(F)(F)F)NC(=O)[C@H](CC(=O)O)NC(=O)C2(CCCC=CCCCOC(=O)N3CC[C@@](C(=O)N[C@@H](Cc4ccccc4Cl)C(=O)N[C@@H](Cc4csc5ccccc45)C(=O)N[C@@H](CCC(N)=O)C(N)=O)(C3)NC(=O)[C@H]([C@@H](C)O)NC(=O)[C@H](Cc3ccccc3)NC(=O)[C@H](C)NC1=O)CCCC=CC[C@]1(CCCN1C(C)=O)C(=O)N[C@@H](CC(=O)O)C(=O)N[C@@H](CC(C)(C)C)C(=O)N2 (stereo partly drawn) [I-1692]
## Output 10.4 µM

## Input Item under review: CC(=O)N1CCC[C@]12CC=CCCCC1(CCCC=CCCCOC(=O)N3CC[C@@](C(=O)N[C@@H](Cc4ccccc4)C(=O)N[C@@H](Cc4csc5ccccc45)C(=O)N[C@@H](CC(=O)N4CCOCC4)C(N)=O)(C3)NC(=O)[C@H](CC(C)C)NC(=O)[C@H](Cc3ccccc3)NC(=O)[C@H](C)NC(=O)[C@H](CCCCNC(=O)CN3CCOCC3)NC(=O)[C@H](CCC(N)=O)NC(=O)[C@H](CC(=O)O)NC1=O)NC(=O)[C@H](CC1CCCCC1)NC(=O)[C@H](CC(N)=O)NC2=O (stereo partly drawn) [I-2527] . Reported IC50?
## Output > 20 µM

## Input For the compound shown here, CC(=O)N1CCC[C@]12CC=CCCCC1(CCCC=CCCCOC(=O)N3CC[C@@](C(=O)N[C@@H](Cc4ccsc4)C(=O)N[C@@H](Cc4csc5ccccc45)C(=O)N[C@@H](CCC(N)=O)C(=O)O)(C3)NC(=O)[C@H](CC(N)=O)NC(=O)[C@H](Cc3ccccc3)NC(=O)[C@H](C)NC(=O)[C@H](C)NC(=O)[C@H](CC(=O)O)NC(=O)[C@H](CC(=O)O)NC1=O)NC(=O)[C@H](CC(C)(C)C)NC(=O)[C@H](CC(=O)O)NC2=O (stereo partly drawn) [I-1025] , give the reported IC50.
## Output 23.6 µM

## Input Consider the compound shown here: CC(=O)N1CCC[C@]12CC=CCCCC1(CCCC=CCCCOC(=O)N3CC[C@@](C(=O)N[C@@H](Cc4ccccc4Cl)C(=O)N[C@@H](Cc4csc5ccccc45)C(=O)N[C@@H](CCC(N)=O)C(N)=O)(C3)NC(=O)[C@H]([C@@H](C)O)NC(=O)[C@H](Cc3ccccc3)NC(=O)[C@H](C)NC(=O)C(C)(C)NC(=O)[C@H](CN(CC(=O)O)CC(F)(F)F)NC(=O)[C@H](CC(=O)O)NC1=O)NC(=O)[C@H](CC(C)(C)C)NC(=O)[C@H](CC(=O)O)NC2=O (stereo partly drawn) [I-1693] What is its recorded IC50?
## Output 4.6 µM

## Input Would you mind telling me what IC50 value was observed for CC(=O)N1CC2CC1C(=O)N[C@@H](CC(=O)O)C(=O)N[C@@H](CC(C)(C)C)C(=O)NC1(CCCCCCCCOC(=O)N3CC[C@@](C(=O)N[C@@H](Cc4ccsc4)C(=O)N[C@@H](Cc4csc5ccccc45)C(=O)N[C@@H](CCC(N)=O)C(N)=O)(C3)NC(=O)[C@H](CC(C)C)NC(=O)[C@H](Cc3ccccc3)NC(=O)[C@H](C)NC(=O)[C@H](C)NC(=O)[C@H](CN(CC(=O)O)CC(F)(F)F)NC(=O)[C@H](CC(=O)O)NC1=O)CCCCCCCC(=O)O2 (stereo partly drawn) [I-2265] ?
## Output > 20 µM
